Molecular target: Torsin-1A (Homo sapiens) (UniProt O14656)
Sequence (O14656 whole entry, looked up): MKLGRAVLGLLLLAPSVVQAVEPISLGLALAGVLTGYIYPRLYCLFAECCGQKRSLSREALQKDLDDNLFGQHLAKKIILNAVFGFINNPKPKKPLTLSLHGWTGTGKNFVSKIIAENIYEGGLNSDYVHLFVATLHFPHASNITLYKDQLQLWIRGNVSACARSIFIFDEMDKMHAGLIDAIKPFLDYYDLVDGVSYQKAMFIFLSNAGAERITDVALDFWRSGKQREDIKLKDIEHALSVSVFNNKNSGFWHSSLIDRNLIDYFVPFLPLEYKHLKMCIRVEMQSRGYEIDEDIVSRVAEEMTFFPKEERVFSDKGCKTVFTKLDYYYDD
Assay: torsin A binders from cell lysate, primary screen, small-molecule microarray, wild-type, 635/667 nm (AID 1149)
Settings: COS7 hTOR1A-WT lysate, 635 nm fluorescence, higher = more signal
Output: class label from composite z-score. Mapping: range 1 (below -0.1), range 2 (-0.1 to below 0.4), range 3 (0.4 or more)

stdin: Place this compound in its band: CN1C(=O)C2C=CC(C(O)c3cccs3)N(N(c3ccccc3)c3ccccc3)C2C1=O (stereo not drawn)
stdout: range 3

stdin: Place this compound in its band: `C=C[C@H](OC)[C@@H](O)c1ccc(OC)c(O)c1`
stdout: range 1

stdin: Place this compound in its band: C=CCC(OC(C)=O)[C@@H]1[C@@H](N(Cc2ccc(-c3ccccc3)cc2)C(=O)Cc2ccc(OC)cc2)c2cc(OCCCO)ccc2N1C(=O)Cc1ccc(OC)cc1 (stereo partly drawn)
stdout: range 2

stdin: Place this compound in its band: `C=CCNC(=O)[C@@H]1[C@H]2C(=O)O[C@H](c3ccccc3)[C@H](c3ccccc3)N2[C@H](c2ccc(OCCO)cc2)[C@@]12C(=O)N(C(=O)OCCOC)c1ccccc12`
stdout: range 3

stdin: Place this compound in its band: `CCOC(=O)C=C1C[C@@H](c2cccc([N+](=O)[O-])c2)O[C@@H](c2cccc([N+](=O)[O-])c2)O1`
stdout: range 2

stdin: Place this compound in its band: `Cc1ccc(S[C@]2(C(=O)NC(C)C)CC(=O)N(Cc3ccccc3)[C@@H]2c2ccc(CO)cc2)cc1`
stdout: range 1

stdin: Place this compound in its band: `Cc1ccc(S(=O)(=O)N2[C@@H](c3ccccc3)C(C(=O)O)=CC[C@H]2c2ccc(F)cc2)cc1`
stdout: range 3

stdin: Place this compound in its band: `C#CCN(C(=O)OC(C)(C)C)[C@H](CO)c1ccccc1`
stdout: range 3

* * *

Recorded measurements of z-score, one per entry
Test: MM1S myeloma cell viability, profiling panel, resazurin fluorescence, basal, 24 h, PK04 Diversity Set (AID 1174);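 also: MM1S multiple myeloma cell line; test concentration not given here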
Settings: higher = more signal, called active from +8 up or from −8 down
I'd appreciate a reply containing only the number, no unit.

Would you please look over these solved cases?
>  <compound>
COC(=O)c1ccc(OC)c(/C=C\CC(OC(=O)c2ccncc2)c2ccccc2)c1 (configuration not stated)

>  <z-score>
0.514

$$$$
>  <compound>
[N-]=[N+]=NCc1ccccc1C[C@@]1(C(N)=O)N=C(c2ccc(OCCCO)cc2)O[C@@H]1c1ccccc1N=[N+]=[N-]

>  <z-score>
-1.32

$$$$
>  <compound>
CCCCN1CC=CC23O[C@@H]4C=CCCOC(=O)C4[C@H]2C(=O)N(CCO)[C@@H]3C1=O (some centres not stated)

>  <z-score>
0.309

$$$$
>  <compound>
CC(CO)N1C(=O)[C@@H]2[C@H]3C(=O)OCC=C[C@H]3OC23C=CCN(c2ccc4ccccc4c2)C(=O)[C@@H]13 (some centres not stated)

>  <z-score>
0.224

$$$$
>  <compound>
COC(=O)[C@@]1(Cc2ccc(OC)cc2)[C@H]2c3cc(C(=O)N(C)C)n(Cc4c(CO)[nH]cc(C)c4=O)c3C[C@H]2CN1C(=O)c1ccccc1

>  <z-score>
-1.06

$$$$
>  <compound>
COCCOC(=O)N1C(=O)[C@@]2(c3cc(C#CCNC(N)=O)ccc31)[C@H](C(=O)Nc1nc3ccccc3s1)[C@H]1C(=O)O[C@H](c3ccccc3)[C@H](c3ccccc3)N1[C@@H]2c1ccc(O)cc1

>  <z-score>
-0.355

$$$$

Next compound, please.
The compound listed as CN1C(=O)C2C=CC(C(O)c3ccc([N+](=O)[O-])cc3)N(Nc3ccccc3)C2C1=O (configuration not stated) shows z-score equal to -1.03

* * *

Biological target: NADPH oxidase 4 (Homo sapiens) (UniProt Q9NPH5)
Sequence (Q9NPH5 whole entry, looked up): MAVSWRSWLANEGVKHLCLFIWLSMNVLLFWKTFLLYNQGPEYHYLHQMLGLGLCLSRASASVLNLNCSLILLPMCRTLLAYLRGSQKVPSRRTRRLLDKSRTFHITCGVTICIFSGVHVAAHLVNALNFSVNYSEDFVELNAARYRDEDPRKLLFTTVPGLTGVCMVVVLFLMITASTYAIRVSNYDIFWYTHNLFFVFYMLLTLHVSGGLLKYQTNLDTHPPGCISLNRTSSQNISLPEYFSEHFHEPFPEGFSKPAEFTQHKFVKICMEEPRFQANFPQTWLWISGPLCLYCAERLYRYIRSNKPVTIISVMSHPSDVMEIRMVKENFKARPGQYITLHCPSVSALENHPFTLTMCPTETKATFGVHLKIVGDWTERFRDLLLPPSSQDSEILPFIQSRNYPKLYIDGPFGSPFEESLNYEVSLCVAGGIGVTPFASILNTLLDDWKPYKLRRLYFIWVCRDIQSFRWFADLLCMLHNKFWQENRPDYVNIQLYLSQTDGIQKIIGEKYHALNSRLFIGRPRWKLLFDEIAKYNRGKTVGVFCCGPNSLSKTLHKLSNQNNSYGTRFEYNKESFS
Experiment: NOX4-dependent H2O2 signal modulators, primary screen, NOX inhibitor project, cell-based, HEK293-NOX4, tetracycline-induced, Amplex Red fluorescence (AID 1160)
Conditions: 45 min, higher = more signal, called active from +8 up or from −8 down
observed.property: z-score
I'd appreciate a reply containing only the number, no unit.

Would you please look over these solved cases?
>  <compound>
CC(C)(C)OC(=O)CC[C@]1(C(=O)N2CCOCC2)COC(c2ccc(OCCCO)cc2)=N1

>  <z-score>
0.324

$$$$
>  <compound>
[N-]=[N+]=NCc1ccccc1C[C@@]1(C(=O)NCCN2CCOCC2)N=C(c2ccc(OCCCO)cc2)O[C@@H]1c1ccccc1

>  <z-score>
0.731

$$$$
>  <compound>
CC[C@@H](O[Si](C#C[Si](C(C)C)(C(C)C)C(C)C)(C(C)C)C(C)C)c1cn(Cc2cccc(Cl)c2)nn1

>  <z-score>
-0.839

$$$$

The compound listed as CC(C)c1ccc(NN2C(C(O)c3ccccc3)C=CC3C(=O)N(c4ccccc4)C(=O)C32)cc1 (stereo unspecified) shows z-score equal to -2.49

The compound listed as `CCCCC(=C=CC[C@@H](O)c1ccc(OCCO)cc1)CCO` shows z-score equal to 0.699

* * *

Target: Fibroblast growth factor 2 (Homo sapiens)
Test: FGF2 binders on small-molecule microarrays, primary screen, biochemical, small-molecule microarray, 635/667 nm fluorescence (AID 1133)
Settings: small-molecule microarray binding, FGF2, fluorescence 635/667; higher = more signal
Recorded measurements of composite z-score, one per entry
I'd appreciate a reply containing only the number, no unit.

Would you please look over these solved cases?
>  <compound>
COc1ccc([Si](C)(C)[C@H]2[C@H](CCO)O[C@@]3(C(=O)N(Cc4ccccc4)c4ccc(NC(=O)[C@H](C)O)cc43)[C@@H]2C)cc1

>  <assay.target>
Fibroblast growth factor 2 (Homo sapiens)

>  <numeric.readout>
-0.145

$$$$
>  <compound>
C=CCNC(=O)[C@@H]1[C@H]2C(=O)O[C@H](c3ccccc3)[C@H](c3ccccc3)N2[C@H](c2ccc(OCCO)cc2)[C@@]12C(=O)Nc1ccc(C#CC3=CCCCC3)cc12

>  <assay.target>
Fibroblast growth factor 2 (Homo sapiens)

>  <numeric.readout>
0.582

$$$$

Next compound, please.
# composite z-score measured on Fibroblast growth factor 2 (Homo sapiens) for item CCOC(=O)C1=CCC(c2cccn2C(=O)OC(C)(C)C)N(S(=O)(=O)c2ccc(C)cc2)C1 (stereo not drawn) = 0.433

* * *

Test: E. coli acrAB mutant growth effects, primary screen, E. coli filamentation inducers, strain DRC39, OD650, 24 h (AID 1178);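 also: growth measured as culture turbidity by optical density at 650 nm; test concentration not given here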
Conditions: higher = more signal, called active from +8 up or from −8 down
Recorded measurements of z-score, one per entry
I'd appreciate a reply containing only the number, no unit.

>  <compound>
COCCOC(=O)N1C(=O)[C@@]2(c3cc(C#CC4=CCCCC4)ccc31)[C@H](c1ccc(O)cc1)N1[C@H](c3ccccc3)[C@H](c3ccccc3)OC(=O)[C@H]1[C@@H]2C(=O)N1CCc2cc(OC)c(OC)cc2C1

>  <numeric.readout>
-0.184

$$$$
>  <compound>
O=C(NCCN1CCOCC1)[C@@H]1c2ccccc2C(=O)N(CC23CC4CC(CC(C4)C2)C3)[C@H]1c1ccc(CO)cc1

>  <numeric.readout>
0.1

$$$$
>  <compound>
COc1ccc(NN2C(C(O)c3ccc(F)cc3)C=CC3C(=O)N(C4CCCCC4)C(=O)C32)cc1 (configuration not stated)

>  <numeric.readout>
-0.385

$$$$
>  <compound>
COc1ccc(C(=O)Nc2cccc(CN3C(=O)[C@]4(O[C@H](CC(=O)N(CCO)Cc5ccccc5)[C@@H]([Si](C)(C)c5ccc(OC)cc5)[C@@H]4C)c4ccccc43)c2)cc1

>  <numeric.readout>
1.46

$$$$

The compound listed as `CC(C)(C)OC(=O)CC[C@@]1(C(N)=O)N=C(c2ccc(OCCCO)cc2)O[C@@H]1c1ccccc1CN=[N+]=[N-]` shows z-score equal to -0.0622

The compound listed as `Cc1ccc(N2C(=O)c3ccccc3[C@@H](C(=O)NCCN3CCOCC3)[C@@H]2c2ccc(CO)cc2)nc1` shows z-score equal to 0.193

The compound listed as `C=CC[C@]1(C(=O)NCCN2CCOCC2)N=C(c2ccc(OCCCO)cc2)O[C@H]1c1ccccc1` shows z-score equal to -0.0082

* * *

Experiment: small-molecule microarray binders of probe aXIP, primary screen, biochemical, NeuroSMM set, 635/667 nm fluorescence (AID 1119);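 also: probe is the protein aXip251-270 applied at 1 µg/mL to compound-printed slides; binding of probe to printed compounds measured as 667 nm fluorescence plus signal to noise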
Conditions: higher = more signal, called active from +8 up or from −8 down
observed.property: composite Z-score
I'd appreciate a reply containing only the number, no unit.

Would you please look over these solved cases?
>  <compound>
CCCCN1CC=CC23O[C@@H]4/C=C\CCC(C)OC(=O)C4[C@H]2C(=O)N(CCO)[C@@H]3C1=O (stereo partly drawn)

>  <numeric.readout>
2.55

$$$$
>  <compound>
COC(=O)[C@]1(Cc2ccccc2N=[N+]=[N-])N=C(c2ccc(OCCCO)cc2)O[C@@H]1c1ccccc1CN=[N+]=[N-]

>  <numeric.readout>
0.636

$$$$
>  <compound>
Cc1cccc([C@H]2C[C@H]3C(Br)=C[C@@]2(CO)C(=O)[C@]32CO2)c1

>  <numeric.readout>
-0.288

$$$$

The compound listed as `O=C1OC[C@@H](c2ccccc2)n2cc(/C=C/c3ccccc3)cc21` shows composite Z-score equal to 0.597

The compound listed as `C=CC[C@]12N=C(c3ccc(OCCCO)cc3)O[C@H]1c1ccccc1N(CCC)C2=O` shows composite Z-score equal to 1.91

The compound listed as `COc1ccc([Si](C)(C)[C@H]2[C@H](CCO)O[C@@]3(C(=O)N(Cc4ccccc4)c4ccc(NC(=O)[C@H](C)O)cc43)[C@@H]2C)cc1` shows composite Z-score equal to 0.393

The compound listed as `C#CCN(C(=O)OC(C)(C)C)[C@H](CO)c1ccccc1` shows composite Z-score equal to 0.32

The compound listed as `COC(=O)[C@@]1(Cc2ccc(F)cc2)[C@H]2c3cc(C(=O)N4CCCC4)n(Cc4ccc(C(F)(F)F)nc4)c3C[C@H]2CN1C(=O)c1ccccc1` shows composite Z-score equal to 0.136
